The values you see were collected from PubChem BioAssay (NCI).

System: CCRF-CEM leukemia
Test: NCI tumour cell line growth inhibition, 48 h
readout name: TGI

Here's what some known entries look like.
{"columns": ["compound", "tgt", "result"],
 "data": [
  ["C=CC(=O)N1CCN(c2nc(OC[C@@H]3CCCN3C)nc3c2CCN(c2cccc4cccc(C)c24)C3)C[C@@H]1CC#N", "CCRF-CEM leukemia", "2.78 µM"],
  ["CCc1ccccc1N1CCN(C(=O)c2cc(OC)c(OC)c(OC)c2)CC1", "CCRF-CEM leukemia", "> 100 µM"],
  ["O=c1[nH]c(=O)n(COCCO)c2ccc(Br)cc12", "CCRF-CEM leukemia", "> 100 µM"],
  ["C=C(C(=O)O)C1CCC(CC/C=C(\\C)CC/C=C(\\C)CCC=C(C)C)CO1 (stereo not given)", "CCRF-CEM leukemia", "> 100 µM"]
]}

Now examine the next entry.
The compound identified as `Cc1cc(NC(=O)NC(=O)c2ccccc2N)ccc1Oc1ncc(Br)cn1` registered its TGI at > 100 µM
